test system: Plasmodium falciparum; assay: Primary screen in NF54 nanoGlo assay, in single point, at 2uM, 72h; type: functional, Erythrocyte; conditions: timepoint 72 hour
About 540 (0.36%) of roughly 150,000 compounds showed an effect of 50% or more. Shown is part of a subset that was picked to be rich in strong results.

| item smiles | % Inhibition / % |
| --- | --- |
| O=C(N[C@@H](Cn1nccn1)c1ccccc1)c1cc(Br)ccc1Cl | 57 |
| O=C(CCc1ccccc1)N[C@H]1CC[C@H](Oc2ncc(F)cn2)CC1 | -10 |
| Cc1ccc(S(=O)(=O)N2CCN(C(=O)NCc3nccn3C)CC2)cc1 | -12 |
